% inhibition reference
target: T1, recombinant human EGFR extracellular domain with 6xHis (human, UniProt P00533 25-645); assay: SPR competition, competitor Ab-1
T1 construct: In-house produced; also called 6xHis EGFR ECD; soluble human EGFR ECD; not shown: 6xHis tag

binder	% inhibition
antibody 1308 (antibody, human IgG1, kappa, V domains shown, Chimeric IgG1 kappa) VH: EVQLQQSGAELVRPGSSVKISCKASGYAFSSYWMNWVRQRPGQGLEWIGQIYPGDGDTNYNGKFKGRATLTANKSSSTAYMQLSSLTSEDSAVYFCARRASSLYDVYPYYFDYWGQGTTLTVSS VL: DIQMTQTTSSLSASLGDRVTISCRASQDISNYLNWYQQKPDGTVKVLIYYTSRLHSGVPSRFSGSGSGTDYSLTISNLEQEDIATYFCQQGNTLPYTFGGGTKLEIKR	-5%
antibody 992 (antibody, human IgG1, kappa, V domains shown, Chimeric mouse/human IgG1 kappa; the VL entry includes the human kappa constant region) VH: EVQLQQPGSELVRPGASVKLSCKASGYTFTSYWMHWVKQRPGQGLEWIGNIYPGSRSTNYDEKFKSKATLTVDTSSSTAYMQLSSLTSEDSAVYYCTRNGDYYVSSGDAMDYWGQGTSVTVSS VL: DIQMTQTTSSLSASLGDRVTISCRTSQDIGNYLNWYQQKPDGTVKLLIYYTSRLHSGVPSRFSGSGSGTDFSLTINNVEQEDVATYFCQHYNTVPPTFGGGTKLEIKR	99%
antibody 1030 (antibody, human IgG1, kappa, V domains shown, Chimeric IgG1 kappa) VH: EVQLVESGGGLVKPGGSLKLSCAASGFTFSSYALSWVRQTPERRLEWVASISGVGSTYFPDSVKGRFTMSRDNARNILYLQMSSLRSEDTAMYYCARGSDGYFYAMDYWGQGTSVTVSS VL: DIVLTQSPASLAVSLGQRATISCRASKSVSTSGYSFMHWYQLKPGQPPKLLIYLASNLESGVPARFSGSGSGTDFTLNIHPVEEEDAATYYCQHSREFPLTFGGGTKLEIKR	98%
antibody 1347 (antibody, human IgG1, kappa, V domains shown, Chimeric IgG1 kappa) VH: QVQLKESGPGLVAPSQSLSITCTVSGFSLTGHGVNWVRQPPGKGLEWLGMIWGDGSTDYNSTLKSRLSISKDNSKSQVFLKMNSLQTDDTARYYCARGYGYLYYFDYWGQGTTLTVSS VL: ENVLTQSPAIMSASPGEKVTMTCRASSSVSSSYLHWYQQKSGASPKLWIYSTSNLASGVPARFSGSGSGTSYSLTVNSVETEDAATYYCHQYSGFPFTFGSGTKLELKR	-3%
